- TARGET SYSTEM: recombinant Mcl-1 (residues 172-327) (Homo sapiens (Human), UniProt Q07820)
- Sequence (Q07820 172-327): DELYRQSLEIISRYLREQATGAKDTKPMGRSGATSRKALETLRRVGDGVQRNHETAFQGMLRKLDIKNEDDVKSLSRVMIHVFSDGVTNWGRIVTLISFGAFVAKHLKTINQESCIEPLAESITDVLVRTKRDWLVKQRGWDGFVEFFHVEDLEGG
- ASSAY METHOD TEXT: Fluorescence polarization anisotropy competition assay (FITC-Bak or FITC-Bim BH3 peptide) with Mcl-1
- Type: binding
- CONDITION INFO: Table 2; Ki bins given in nM; FITC-Bak or FITC-Bim peptide competition; Ki converted from IC50; read-out: Ki for Inhibition of Mcl-1
For each entry below, report its Ki value.

In plain terms, Cc1cc(OCCCc2c(C(=O)N(C)c3cccc(C(=O)O)c3)[nH]c3c(-c4c(C)nn(C)c4C)c(Cl)ccc23)cc(C)c1Cl [I-187] has a documented Ki of < 50 nM

In plain terms, Cc1cc(OCCCc2c(C(=O)N(Cc3ccc(C(F)(F)F)cc3)c3ccc(S(N)(=O)=O)cn3)[nH]c3ccccc23)cc(C)c1Cl [I-49] has a documented Ki of 101 to 299 nM

In plain terms, Cc1cc(OCCCc2c3n(c4c(-c5c(C)nn(C)c5C)c(Cl)ccc24)C[C@@H](C)N(c2cc(C(=O)O)c4ccn(C)c4c2)C3=O)cc(C)c1Cl [I-160] has a documented Ki of < 50 nM

In plain terms, Cc1cc(OCCCc2c3n(c4c(-c5c(C)nn(C)c5C)c(Cl)ccc24)CCN(Cc2ccc(C(=O)O)cc2)C3=O)cc(C)c1Cl [I-140] has a documented Ki of < 50 nM

In plain terms, Cc1cc(OCCCc2c3n(c4c(-c5c(C)nn(C)c5C)c(Cl)ccc24)CCCN(c2ccc4ccn(C)c4c2)C3=O)cc(C)c1Cl [I-248] has a documented Ki of < 50 nM

In plain terms, Cc1cc(OCCCc2c(C(=O)NCCS(=O)(=O)NC(=O)Cc3ccc(Br)cc3)[nH]c3ccccc23)cc(C)c1Cl [I-53] has a documented Ki of 301 to 500 nM
